What follows is literature data on pIC50 for UniProt P25774.
Sequence (P25774 whole entry): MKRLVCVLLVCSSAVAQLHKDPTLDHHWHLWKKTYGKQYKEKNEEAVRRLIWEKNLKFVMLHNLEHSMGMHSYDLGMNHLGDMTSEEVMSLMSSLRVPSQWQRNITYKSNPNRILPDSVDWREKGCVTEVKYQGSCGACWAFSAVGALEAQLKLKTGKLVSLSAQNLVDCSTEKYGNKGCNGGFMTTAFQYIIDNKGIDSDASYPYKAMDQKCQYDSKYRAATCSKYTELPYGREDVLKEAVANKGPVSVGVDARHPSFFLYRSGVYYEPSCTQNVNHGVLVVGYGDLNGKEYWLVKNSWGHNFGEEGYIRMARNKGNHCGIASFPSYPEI
pIC50: −log10 of the molar value.
Readout: pIC50

Observe how each entry below is paired with its result.
INSERT INTO assay_data (compound, readout, assay_result) VALUES
  ('CC(C)(C)CC(C)(C)NC(=O)C(=O)C(COCc1ccccc1)NC(=O)C(CC1CCCCC1)NC(=O)N1CCOCC1 (centres undefined)', 'pIC50', 8.51),
  ('CCCc1ccc(S(=O)(=O)NC2CCN(c3ccnc(Nc4ccc(OC)cc4)n3)C2)cc1 (centres undefined)', 'pIC50', 6.17);

I: N#CC1(NC(=O)[C@H](CS(=O)(=O)Cc2c(Cl)cccc2Cl)N[C@@H](c2ccc(F)cc2)C(F)(F)F)CC1
II: NC(=O)N1CCc2c(c(-c3ccc(Cl)c(C#Cc4ccc(CN[C@@H]5CCCc6ccccc65)cc4)c3)nn2CCCN2CCOCC2)C1
Of the two listed items, which has the higher pIC50? First: I Second: II Refer to your chosen item by its label in the answer.
I
(I: 9.15, II: 7.01)
